test system: T. cruzi-infected H9C2 cardiomyocytes, high-content imaging; assay: intracellular T. cruzi amastigote inhibition, imaging, H9C2 host cardiomyocytes, host toxicity (AID 1159565); settings: measured here: H9C2 host cell toxicity;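 also: infected cells incubated 72 h after plating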
pIC50: −log10 of the molar value.
reported_property: pIC50

Here's what some known entries look like.
## Task Consider the compound Cc1ccccc1OCC(=O)N1CCCN(c2cccnn2)CC1 and give its measured pIC50.
## Result < 4.30

## Task // next record N#Cc1cc(N2CCCC2=O)ccc1Sc1ccccc1CO
## Result < 4.30

## Task Next entry: COc1ccc(-c2cnc(NC(=O)c3ccc(F)cc3)n2C)cc1
## Result < 4.30

State recorded pIC50 for all listed compounds.
1. Cc1nn2c(NCCCO)c3c(nc2c1-c1cccs1)CCC3
2. COc1ccc(-c2ccc3nnc(-c4ccc(O)c(OC)c4)n3c2)cn1
3. CCOC(=O)c1cn[nH]c1S(=O)(=O)N1CCC1c1ccccc1 (stereo not drawn)

## Result
1. < 4.30
2. < 4.30
3. < 4.30

For each of the compounds below, state pIC50.
1. O=C(Cc1ccccc1)Nc1ccccc1C(=O)Nc1nccs1
2. CS(=O)(=O)NC1CCC(Oc2cc3cnccc3cc2-c2ccsc2)CC1 (stereo not drawn)
3. COc1ccc(C(=O)[C@H]2C[C@@H]2CN(Cc2ccccn2)Cc2ccccn2)cc1
4. NC(=O)c1ccc(-c2cccc(OCCN3CCN(C4CCCCC4)CC3)c2)cc1
5. CC(Cn1ccnc1)NC(=O)C1CC1c1cccc(Cl)c1Cl (stereo not drawn)
6. Cc1cc(Oc2cc(Cl)c(Cl)cc2Cl)n2ncnc2n1
7. Cc1c(C(C)NC(=O)Nc2cccc(Cl)c2)sc2ncnn12 (stereo not drawn)

## Result
1. < 4.30
2. < 4.30
3. 4.60
4. < 4.30
5. < 4.30
6. 5.10
7. < 4.30

---

Provide the reported pIC50 of each item.
system: T. cruzi-infected H9C2 cardiomyocytes, high-content imaging; experiment: intracellular T. cruzi amastigote inhibition, imaging, H9C2 host cardiomyocytes, host toxicity (AID 1159565); details: measured here: H9C2 host cell toxicity;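 also: infected cells incubated 72 h after plating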
pIC50: −log10 of the molar value.

A selection of reference data follows.
## Task Test system T. cruzi-infected H9C2 cardiomyocytes, high-content imaging; read-out pIC50; what value for Cc1nccn1C1CCCN(C(=O)c2cc3c(F)cccc3s2)C1 (stereo unspecified) ?
## Result < 4.30

## Task Okay, and CCN(Cc1ccncc1)Cc1ccc(NC(=O)c2cc(-c3ccc(F)cc3)n[nH]2)cc1 ?
## Result < 4.30

## Task Now consider N#Cc1cccc(CN2CCC(c3nc(-c4ccc(C(F)(F)F)nc4)no3)CC2)c1 .
## Result < 4.30

List pIC50 for every entry below, keeping the order given.
1. Cc1ccc(S(=O)(=O)Cn2nnnc2C(c2cccnc2)N2CCN(c3ccccc3)CC2)cc1 (stereo unspecified)
2. Cc1cc(Nc2ccc(C#N)c(Cl)c2C)n[nH]1
3. NS(=O)(=O)c1ccc(Nc2nccc(-c3cnn4ncccc34)n2)cc1
4. COc1ccc(CN2CCCCC2c2nc(-c3cccnc3)no2)cc1 (stereo unspecified)

## Result
1. < 4.30
2. < 4.30
3. 6.49
4. < 4.30

Please state, for each entry, its recorded pIC50.
1. Cc1ccc(C)c(CN2C(=O)NC3(CCc4ccccc43)C2=O)c1 (stereo unspecified)
2. CCCCNc1nccc(-c2c(-c3ccc(F)cc3)nn3c(N4CCOCC4)cccc23)n1
3. O=C(Nc1nc(-c2ccc(S(=O)(=O)N3CCOCC3)cc2)cs1)c1ccc([N+](=O)[O-])cc1
4. OC[C@@H](Nc1nccc(-c2c(-c3ccc(F)cc3)ncn2C2CCNCC2)n1)c1ccccc1
5. Cn1nc([N+](=O)[O-])nc1Oc1ccc(C(=O)c2ccccc2)cc1

## Result
["< 4.30", "< 4.30", "< 4.30", 5.70, "< 4.30"]

I'm hoping you can list pIC50 for every compound here, please.
1. CCN(Cc1cccs1)C(=O)CSc1nnc(-c2ccc3c(c2)OCO3)o1
2. CCCCCNC(=O)c1c[nH]c2ccc(S(=O)(=O)N(C)c3ccc(OCC)cc3)cc2c1=O
3. CCCc1nc2nc(N)nc(N)c2cc1CC
4. O=C(NCc1nnc2n1CCCCC2)c1ccc(-c2ccc(F)cc2)o1
5. CN(C)S(=O)(=O)c1ccc(Cl)c(C(=O)Nc2nc(-c3ccccn3)cs2)c1

## Result
1: < 4.30; 2: < 4.30; 3: 4.89; 4: < 4.30; 5: 5.20
